protocolDescription: chemical genetic growth profiling, strain panel (AID 1159580);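 further: tested at 20 µM; growth read once vehicle control cultures reached saturation at 30 °C; lower values mean less growth of the strain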
conditionNotes: S. cerevisiae deletion strains, growth OD, locus YML016C, strain PPZ1
The whole screen tested about 5,500 compounds, of which about 2,000 (36%) were called active. Inconclusive results (about 18%) are left out. No stated cut-off is given here; in the data, active means normalized growth mostly below about 0.91 (no sharp cut-off); inconclusive means no clear call, values can overlap the other calls; inactive means mostly above about 0.92. The list shows a part of the results.
Select the correct class. Options are active, inactive and nothing else.

Can you look up the reported call for CC(=O)OC1CC[C@@]2(C)C(CCC3C2CC[C@]2(C)C(C4=CC(=O)OC4)C(OC(C)=O)CC32O)C1 (stereo not given in full) for me? inactive

Can you look up the reported call for COc1cc(C)c2c(=O)c3c(O)cc(OC)cc3oc2c1 for me? inactive

Can you look up the reported call for CCC(=O)OCC(=O)[C@@]1(OC(=O)CC)[C@@H](C)CC2C3CCC4=CC(=O)C=C[C@]4(C)C3(F)[C@@H](O)C[C@@]21C (stereo not given in full) for me? inactive

Can you look up the reported call for COC1C(O)C(O[C@H]2CC[C@]3(C=O)C4C(CC[C@]3(O)C2)[C@@]2(O)CC[C@H](C3=CC(=O)OC3)[C@@]2(C)C[C@H]4OC(C)=O)OC(C)C1OC(C)=O (stereo not given in full) for me? inactive

Can you look up the reported call for C[C@H]1OC(O[C@H]2[C@@H](O)CC(O[C@H]3[C@@H](O)C[C@H](O[C@H]4CC[C@]5(C)C6CC[C@]7(C)[C@@H](C8=CC(=O)OC8)[C@@H](O)C[C@]7(O)[C@@H]6CC[C@@H]5C4)O[C@@H]3C)O[C@@H]2C)C[C@H](O)C1O (stereo not given in full) for me? inactive

Can you look up the reported call for C[C@]12CC[C@H](O)C[C@H]1CCC1C2CC[C@]2(C)[C@@H](C3=CC(=O)OC3)[C@@H](O)C[C@]12O (stereo not given in full) for me? inactive

Can you look up the reported call for CCC(=O)O[C@]1(C(=O)CCl)[C@@H](C)CC2C3CCC4=CC(=O)C=C[C@]4(C)[C@@]3(F)[C@@H](O)C[C@@]21C (stereo not given in full) for me? inactive

Can you look up the reported call for C/C=C/CC(C)C(O)C1C(=O)NC(CC)C(=O)N(C)CC(=O)N(C)C(CC(C)C)C(=O)NC(C(C)C)C(=O)N(C)C(CC(C)C)C(=O)NC(C)C(=O)NC(C)C(=O)N(C)C(CC(C)C)C(=O)N(C)C(CC(C)C)C(=O)N(C)C(C(C)C)C(=O)N1C (stereo not given) for me? inactive

Can you look up the reported call for CC12CCC3C(CCC4(O)CC(O)CCC34/C=N/NC(N)=O)C1(O)CCC2C1=CC(=O)OC1 (stereo not given) for me? inactive

Can you look up the reported call for COc1ccc(-c2cc(=O)c3c(O)cc(O)cc3o2)cc1O for me? inactive

Can you look up the reported call for Cc1cc(N)c2ccccc2[n+]1CCCCCCCCCC[n+]1c(C)cc(N)c2ccccc21 for me? active

Can you look up the reported call for COc1cc(C)c2c(=O)c3c(O)cc(O)cc3oc2c1 for me? inactive

Can you look up the reported call for CC1=CC(=O)C2C(C)(C)CCC[C@]2(C)[C@@]1(O)CCc1ccoc1 (stereo not given in full) for me? inactive

Can you look up the reported call for CCC(=O)OCC(=O)C1(OC(=O)CC)C(C)CC2C3CCC4=CC(=O)C=CC4(C)C3(Cl)C(O)CC21C (stereo not given) for me? inactive

Can you look up the reported call for C[C@]12CCC3C(CC[C@]4(O)C[C@@H](O)CC[C@]34C=O)[C@@]1(O)CCC2C1=CC(=O)OC1 (stereo not given in full) for me? inactive
